Tested on: ENR+CD organoids (ISC to Paneth cell differentiation)
procedure details: Primary screen: basal (non-stimulated) lysozyme secretion LYZ.NS, 2.5-D 384-well ENR+CD organoid differentiation
Format: cell-based, mouse
particulars: primary screen, dose 10.00 uM, standard z score
Decide using Z.LYZ.NS alone. Strictly below -0.3: fulfilled. Equal to or above -0.3: not fulfilled.

# count of solved cases: 8
CS(=O)(=O)c1cccc(CNc2nc(Nc3ccc4c(c3)CCC(=O)N4)ncc2C(F)(F)F)c1: fulfilled
Cc1c(C(=O)NN2CCCCC2)nn(-c2ccc(Cl)cc2Cl)c1-c1ccc(Cl)cc1: fulfilled
CC(NC(=O)c1ccccc1/N=C/c1c(O)ccc2ccccc12)c1ccccc1 (stereo not drawn): not fulfilled
Cl.NC(=O)c1cnc(N[C@@H]2CCCC[C@@H]2N)nc1Nc1cccc(-n2nccn2)c1 [PRT062607 (P505-15, BIIB057) HCl]: fulfilled
CCCN[C@H]1CCc2nc(N)sc2C1 [Pramipexole]: not fulfilled
N#CC[C@H](C1CCCC1)n1cc(-c2ncnc3[nH]ccc23)cn1 [Ruxolitinib (INCB018424), Ruxolitinib, reference compound]: not fulfilled
C1=N/C2=N/c3ccc(OCCN4CCCC4)c(c3)COC/C=C/COCc3cccc(c3)C(=C1)N2 [Pacritinib (SB1518)]: fulfilled
CC(=O)c1c(C)c2cnc(Nc3ccc(N4CCNCC4)cn3)nc2n(C2CCCC2)c1=O.Cl [Palbociclib (PD-0332991) HCl]: fulfilled

Continue with the molecule presented below.
query: Z.LYZ.NS strictly < -0.3 for this molecule? `O=c1cc(N2CCOCC2)oc2c1ccc1ccccc12`
result: fulfilled
